Data provenance is patent US20180305450A1.

Fold IC50 pH 7.4 (Variant v Par0067) for assorted binders
Molecular target: T1, recombinant biotinylated human PAR2 extracellular domain (residues 1-75), N-terminal AviTag, C-terminal Flag … (human, UniProt P55085 26-75, biotin on the AviTag (enzymatic biotinylation))
T1 construct: also called Bio-human-PAR2 ECD; human PAR2 ECD; not shown: N-terminal AviTag (Avidity LLC); C-terminal Flag and poly Histidine tags
T1 sequence (P55085 26-75): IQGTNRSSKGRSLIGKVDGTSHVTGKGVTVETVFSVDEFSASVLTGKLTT
Experiment: HTRF competition with Par0067 IgG, scFv
Numbers only; they are read as fold.

The reported value for PaB670092 scFv (scFv, V domains shown, purified scFv; also called ZZ1ODR-G11) VH: EVQLLESGGGLVQPGGSLRLSCAASGFTFSSYAMNWVRQAPGKGLEWVSTISYHGSHISYHDSHHGRFTISRDNSKNTLYLQMNSLRAEDTAVYYCARINNDPMDVWGQGTLVTVSS VL: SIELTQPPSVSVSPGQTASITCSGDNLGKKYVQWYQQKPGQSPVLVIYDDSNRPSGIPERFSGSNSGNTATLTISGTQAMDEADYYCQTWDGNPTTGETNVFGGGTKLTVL in terms of Fold IC50 pH 7.4 (Variant v Par0067) is 12.5
